Reported IC50 values for a set of molecules
- SYSTEM UNDER TEST: mouse 11b-HSD1 (Mus musculus)
- Construct: expressed in transfected cells
- Sequence (P50172 whole entry): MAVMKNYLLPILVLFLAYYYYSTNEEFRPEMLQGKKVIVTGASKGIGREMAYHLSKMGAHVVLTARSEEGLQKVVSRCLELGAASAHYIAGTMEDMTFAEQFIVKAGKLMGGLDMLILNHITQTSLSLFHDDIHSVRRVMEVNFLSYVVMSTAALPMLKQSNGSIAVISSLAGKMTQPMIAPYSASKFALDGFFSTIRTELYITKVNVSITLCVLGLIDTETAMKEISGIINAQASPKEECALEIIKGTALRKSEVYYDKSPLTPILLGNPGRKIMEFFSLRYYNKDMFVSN
- TEST PROTOCOL: cell-based assay, stable CHO cell line expressing mouse 11b-HSD1, cortisol measured with DiscoverX HitHunter Cortisol Assay
- CONDITION PARAMETERS: CHO cells expressing mouse 11b-HSD1; serum-free media; 500 nM cortisone, 120 minutes; read-out: Mouse 1C50

{"MOLECULE": "COc1ccc(N(C(=O)OC(C)(C)C)S(=O)(=O)c2ccc(C(N)(C(F)(F)F)C(F)(F)F)cc2)cc1", "IC50": "> 10 µM"}
{"MOLECULE": "C[C@@H]1CN(c2ccc(C(N)(C(F)(F)F)C(F)(F)F)nc2)CCN1S(=O)(=O)c1cccc(C(C)(O)C(F)(F)F)c1 (stereo partly shown)", "IC50": "0.16 µM"}
{"MOLECULE": "NC(c1cccc(C(=O)N2CCCCC2)c1)(C(F)(F)F)C(F)(F)F", "IC50": "> 10 µM"}
{"MOLECULE": "CC(C)(C)OC(=O)N(C1CCCCC1)S(=O)(=O)c1cccc(C(N)(C(F)(F)F)C(F)(F)F)c1", "IC50": "> 10 µM"}
{"MOLECULE": "CCN(CC)S(=O)(=O)c1ccc(C(N)(C(F)(F)F)C(F)(F)F)cc1", "IC50": "0.225 µM"}
{"MOLECULE": "NC(c1cccc(S(=O)(=O)N2CCCCC2)c1)(C(F)(F)F)C(F)(F)F", "IC50": "> 10 µM"}
{"MOLECULE": "NC(c1ccc(C(=O)N2CCCCC2)cc1)(C(F)(F)F)C(F)(F)F", "IC50": "> 10 µM"}
{"MOLECULE": "CC(C)(C)OC(=O)N(Cc1ccccc1)S(=O)(=O)c1cccc(C(N)(C(F)(F)F)C(F)(F)F)c1", "IC50": "> 10 µM"}
{"MOLECULE": "NC(c1cccc(S(=O)(=O)N2CCCC2)c1)(C(F)(F)F)C(F)(F)F", "IC50": "> 10 µM"}
{"MOLECULE": "C[C@@H]1CN(c2ccc(C(N)(C(F)(F)F)C(F)(F)F)cc2C(F)(F)F)CCN1S(=O)(=O)c1cccc(C(C)(O)C(F)(F)F)c1 (stereo partly shown)", "IC50": "0.2 µM"}
